Source of measurements: PubChem BioAssay (NCI)

System: MDA-MB-435
Return exactly one item of 1 for active, -1 for inactive

Before answering, review these 3 worked examples.
# Molecule, Class
measured = [
    ("COc1cc(C2C3=C(COC3=O)Nc3cc4c(cc32)CCC4)cc2c1OCO2 (configuration not stated)", 1),
    ("Nc1ccc(-c2ccc(N)cc2I)c(I)c1", -1),
    ("CS(=O)(=O)Nc1ccc(N=Cc2c(O)[nH]c3ccccc23)cc1", -1),
]

query: Hello, I am checking results. What call was entered for O=C(CN(/C=C/C(=O)C(F)(F)F)c1ccccc1)c1ccc(Cl)c(Cl)c1 ?
result: -1

query: Hello, I am checking results. What call was entered for CC(C)(C#N)c1cc(C(=O)Nc2cc(Nc3ncccc3-c3ncnc4nc[nH]c34)ccc2F)cc(C(F)(F)F)c1 ?
result: 1

query: Hello, I am checking results. What call was entered for O=C(COc1cccc(/C=C2\COc3ccc(Cl)cc3C2=O)c1)c1ccc(Cl)cc1 ?
result: -1

----------
Tested on: COLO 205 colon
Experiment: NCI tumour cell line growth inhibition, 48 h
Where a SMILES comes first, the peptide text is derived from it. The star is where a group is joined. Boc = CC(C)(C)OC(=O)*; OBn = c1ccc(CO*)cc1
TGI below 7 µM gives not fulfilled; TGI at or above it gives fulfilled.

Before answering, review these 10 worked examples.
# Molecule, Class
data = [
    ("O=c1[nH]c(-c2ccccc2)nc2c1sc1nc3ccccc3n12", "fulfilled"),
    ("FC(F)(F)c1ccc(-c2cnc(Cl)nc2NCc2cc(C(F)(F)F)cc(C(F)(F)F)c2)cc1", "not fulfilled"),
    ("CC(=O)NC1CC2Oc3ccc(C)cc3C(C)(O2)C1O (stereo unspecified)", "fulfilled"),
    ("CCOc1ccc(NCC2CC/C(=C\\c3ccc(O)cc3)C2=O)cc1 (stereo unspecified)", "fulfilled"),
    ("Cn1c(=O)c2c(ncn2CCCCOc2ccc3c(c2)[n+]([O-])nc(N)[n+]3[O-])n(C)c1=O", "fulfilled"),
    ("CC(C)N1C(NNC(=O)c2cnccn2)=NS(=O)(=O)c2ccccc21", "fulfilled"),
    ("CC(NC(=O)C(Cc1ccccc1)NC(=O)C(Cc1ccccc1)NC(=O)OC(C)(C)C)C(=O)OCc1ccccc1 (stereo not drawn) (Boc-Phe-Phe-Ala-OBn; configuration not given here)", "fulfilled"),
    ("COc1ccc(-c2nn(-c3cccc(Cl)c3)cc2-c2cc(-c3ccccc3)nc(N)n2)cc1", "not fulfilled"),
    ("O=C1c2ccccc2CC1C1(O)C(=O)Nc2ccccc21 (stereo unspecified)", "fulfilled"),
    ("NNCCc1n[nH]c(=O)n1N", "fulfilled"),
]

query: Given COc1cc(/C=C/C(=O)c2sc(NNC(C)=O)nc2C)ccc1O , state whether its TGI is at least 7 µM.
result: fulfilled

query: Given COc1cc(C2C3=C(COC3=O)Nc3cc4c(cc32)CCC4)cc2c1OCO2 (stereo unspecified) , state whether its TGI is at least 7 µM.
result: not fulfilled

query: Given Oc1ccc(/C=C/c2ccc3cccc(O)c3n2)cc1O , state whether its TGI is at least 7 µM.
result: fulfilled

query: Given CC(C)C[C@H](NC(=O)[C@@H](O)[C@H](N)Cc1ccc([N+](=O)[O-])cc1)C(=O)O , state whether its TGI is at least 7 µM.
result: fulfilled

query: Given CSc1ccccc1C#Cc1ccccc1C#CCCCCO , state whether its TGI is at least 7 µM.
result: fulfilled
